# Tested on: Quadruplex DNA
# Procedure summary: Stabilization of c-Myc G4 quadruplex DNA assessed as change in melting temperature at 10 mol.equiv by circular dichroism melting assay
# Type: nucleic-acid assay
Activity calls are given as the source filed them. No cut-off for these calls is given here.
Would you mind answering with one of these outcomes? active, inactive

Past entries and their recorded results:
| Chemical structure | Measured target | Qualitative label |
| --- | --- | --- |
| N=C(N)N/N=C/c1cn(C/C=C/c2ccccc2)c2ccccc12 | Quadruplex DNA | active |
| N=C(N)N/N=C/c1cn(Cc2ccccc2)c2ccccc12 | Quadruplex DNA | active |
| N=C(N)N/N=C/c1c(-c2ccccc2)nc2nc(N)ccn12 | Quadruplex DNA | inactive |
| O=C1Nc2c(ccc3ccccc23)/C1=C\c1cccc(/C=N/NC2=NCCN2)c1 | Quadruplex DNA | active |
| COc1cc2c(/C=N/NC(=N)N)c(Cl)n(C)c2cc1C | Quadruplex DNA | active |
| N=C(N)N/N=C/c1cccc(/C=C2/C(=O)Nc3ccc(Cl)cc32)c1 | Quadruplex DNA | active |

*Q* Give the logged outcome of this assay for the following compound: Nc1ccn2c(/C=N/NC3=NCCN3)c(-c3ccccc3)nc2n1
*A* active

*Q* Give the logged outcome of this assay for the following compound: Cc1cc2c(cc1O)/C(=C\c1cccc(/C=N/NC(=N)N)c1)C(=O)N2
*A* active

*Q* Give the logged outcome of this assay for the following compound: CC(C)(C)c1cc(/C=N/NC(=N)N)c(O)c(/C=C2/C(=O)Nc3c2ccc2ccccc32)c1.Cl
*A* active

*Q* Give the logged outcome of this assay for the following compound: O=C1Nc2ccc(Cl)cc2/C1=C\c1cccc(/C=N/NC2=NCCN2)c1
*A* active

----------
# Procedure summary: Stabilization of hairpin-duplex DNA assessed as change in melting temperature at 10 mol.equiv by circular dichroism melting assay
Measurement name: ΔTm

| Chemical structure | ΔTm |
| --- | --- |
| COc1cc2c(/C=N/NC(=N)N)c(Cl)n(C)c2cc1C | > 2 °C |

*Q* Entry COc1cc2c(/C=N/NC(=N)N)c(Cl)[nH]c2cc1C has what ΔTm?
*A* > 2 °C

*Q* Entry COc1cc2c(/C=N/NC(=N)N)c[nH]c2cc1C has what ΔTm?
*A* > 2 °C

*Q* Entry Nc1ccn2c(/C=N/NC3=NCCN3)c(-c3ccccc3)nc2n1 has what ΔTm?
*A* > 2 °C

*Q* Entry O=C1Nc2c(ccc3ccccc23)/C1=C\c1cccc(/C=N/NC2=NCCN2)c1 has what ΔTm?
*A* > 2 °C

*Q* Entry N=C(N)N/N=C/c1cccc(/C=C2/C(=O)Nc3ccc(Cl)cc32)c1 has what ΔTm?
*A* > 2 °C

----------
# System: Quadruplex DNA
# Procedure summary: Stabilization of parallel Tel23 G4 quadruplex DNA assessed as change in melting temperature at 10 mol.equiv by circular dichroism melting assay
# Type: nucleic-acid assay
Activity calls are given as the source filed them. The calls are words filed in the database; no cut-off is given here.
Would you mind answering with one of these outcomes? active, inactive

| Chemical structure | Measured target | Qualitative label |
| --- | --- | --- |
| O=C1Nc2c(ccc3ccccc23)/C1=C\c1cccc(/C=N/NC2=NCCN2)c1 | Quadruplex DNA | active |
| N=C(N)N/N=C/c1c(-c2ccccc2)nc2nc(N)ccn12 | Quadruplex DNA | inactive |
| O=C1Nc2ccc(Cl)cc2/C1=C\c1cccc(/C=N/NC2=NCCN2)c1 | Quadruplex DNA | active |

*Q* Give the logged outcome of this assay for the following molecule: Nc1ccn2c(/C=N/NC3=NCCN3)c(-c3ccccc3)nc2n1
*A* active

*Q* Give the logged outcome of this assay for the following molecule: Cc1cc2c(cc1O)/C(=C\c1cccc(/C=N/NC(=N)N)c1)C(=O)N2
*A* active

----------
# Tested on: Quadruplex DNA
# Procedure summary: Stabilization of c-Kit1 G4 quadruplex DNA assessed as change in melting temperature at 10 mol.equiv by circular dichroism melting assay
# Assay type: nucleic-acid assay
Activity calls are given as the source filed them. No cut-off for these calls is given here.
Measurement name: Activity

Before answering, review these 4 worked examples.
| Chemical structure | Measured target | Activity |
| --- | --- | --- |
| CC(C)(C)c1cc(/C=N/NC(=N)N)c(O)c(/C=C2/C(=O)Nc3c2ccc2ccccc32)c1.Cl | Quadruplex DNA | Active |
| COc1cc2c(/C=N/NC(=N)N)c(Cl)n(C)c2cc1C | Quadruplex DNA | Active |
| Cc1cc2c(cc1O)/C(=C\c1cccc(/C=N/NC(=N)N)c1)C(=O)N2 | Quadruplex DNA | Active |
| Nc1ccn2c(/C=N/NC3=NCCN3)c(-c3ccccc3)nc2n1 | Quadruplex DNA | Active |

Now turn to the next molecule.
*Q* Entry O=C1Nc2ccc(Cl)cc2/C1=C\c1cccc(/C=N/NC2=NCCN2)c1 has what Activity?
*A* Active
